experiment: inhibitors of TNFa-induced NFkB p65 translocation, primary screen, imaging, HUVEC, MLSMR starter and 10KST1 sets (AID 438); settings: HUVEC TNFa-induced p65 nuclear translocation; at 2 µM, stronger effect = higher value, 0% TNFa-plus-vehicle, 100% no-TNFa wells;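 note: compound added about 3h40 before a 20 min TNFalpha stimulation; signal is the nuclear over cytoplasmic p65 intensity ratio per well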
So I've got a bunch of compounds here, and I need their inhibition values.
Kindly answer with a numeric value in %, unit omitted.

## Task Look up and state reported inhibition for "CCOC(=O)c1[nH]c2cc3c(cc2c1NC(=O)CN1CCC(C)CC1)OCO3"
## Result -1.1

## Task Using the record for "CCC(NC(=O)Nc1ccc(O)cc1)(C(F)(F)F)C(F)(F)F" , state its measured inhibition.
## Result -9.4

## Task Complete the entry with inhibition for "COc1ccc(Cn2c(O)cc(=O)[nH]c2=O)cc1"
## Result -0.7

## Task For "COc1ccc(N/C(=N\c2nc(C)cc(C)n2)NC(=O)C(C)C)cc1OC" , write its inhibition.
## Result -6

## Task Specify reported inhibition for the compound shown: "CC(=O)c1cc(CN2CCCCC2)cc(OC(C)C)c1"
## Result -6.7

## Task Please indicate inhibition recorded for "COC(=O)CNC(=O)c1c(C)cc(=O)oc1C"
## Result 1.6

## Task Look up and state reported inhibition for "CCc1cc2c(=O)c(-c3nc4ccccc4[nH]3)coc2cc1OC(=O)N1CCOCC1"
## Result -4.8

## Task Return inhibition for the following compound: "CNC(=O)c1cc2ccccc2o1"
## Result -23.3

## Task Give recorded inhibition. "COc1ccc(CCn2c(=N)c(C(=O)NCc3ccco3)cc3c(=O)n4ccccc4nc32)cc1"
## Result -4.9

## Task For the compound "CC(C)(C)NCc1cc2ccccc2[nH]c1=O" , give its measured inhibition value.
## Result 4.5

## Task Give the reported inhibition for this compound. C=C(C)C1Cc2c(C)nn(-c3nc(C)cc(C)n3)c2C1 (configuration not stated)
## Result -2.7

## Task Please give the documented inhibition of "COc1cccc(-c2nnc3sc(-c4ccc(C)cc4)nn23)c1"
## Result 3.3

Just for reference, PubChem BioAssay is where these values come from.
